Measured values drawn from ChEMBL document CHEMBL1123859 for this set.

The following compounds are shown together with reported IC50 values.
target: Polyunsaturated fatty acid 5-lipoxygenase (Rattus norvegicus) (UniProt P12527); experiment: IC50 for inhibition of rat neutrophil 5-lipoxygenase (5-LO)
# number only, unit µM dropped from output

Some solved entries appear below for comparison.
Name the recorded IC50 of the compound listed here: CCCCC(C)(C)C(O)c1cccc(OCc2ccccc2)c1 (configuration not stated)
2.5

Indicate its recorded IC50; the compound in question is CCCCCC(O)c1cccc(/C=C\c2ccccc2)c1 (configuration not stated)
6.4

Output IC50 of CCCCCC(C)(O)c1cccc(OCc2ccccc2)c1 (configuration not stated)
1

Supply reported IC50 belonging to this compound: CCCCCC(O)c1cccc(OCc2ccccn2)c1 (configuration not stated)
0.5

Hello, please tell me recorded IC50 for this one: CCCCC(O)c1cccc(OCc2ccccc2C(=O)OC)c1 (configuration not stated)
2.5

***
Note down IC50 recorded for CCCCCC(O)c1cccc(OCc2cccc(CC(=O)O)c2)c1 (configuration not stated)
2.5

* * *

# inhibition at 10 µM values compiled below
species on record: Cavia porcellus; assay: Percent inhibition of LTC4-induced contraction in guinea pig parenchymal strip test, at a concentration of 10 uM; assay type: functional
Please state the value followed by its unit.

Worked examples, 3 compounds total:
Give the reported value of inhibition at 10 µM for this record: CCCCCC(O)c1cccc(OCc2cccc(C#N)c2)c1 (centres undefined)
3%

Look up inhibition at 10 µM of CCCCCC(O)c1cccc(OCc2cccc(C#N)n2)c1 (centres undefined) and report it.
36%

For the compound CCCCCC(O)c1cccc(OCc2cccc(C(N)=O)c2)c1 (centres undefined) , give its measured inhibition at 10 µM value.
0%

Others:
Give the reported value of inhibition at 10 µM for this record: CCCCCC(O)c1cccc(OCc2ccc(C(=O)OC)cc2)c1 (centres undefined)
0%

* * *

Molecular target: Polyunsaturated fatty acid 5-lipoxygenase (Rattus norvegicus)
Sequence (whole entry): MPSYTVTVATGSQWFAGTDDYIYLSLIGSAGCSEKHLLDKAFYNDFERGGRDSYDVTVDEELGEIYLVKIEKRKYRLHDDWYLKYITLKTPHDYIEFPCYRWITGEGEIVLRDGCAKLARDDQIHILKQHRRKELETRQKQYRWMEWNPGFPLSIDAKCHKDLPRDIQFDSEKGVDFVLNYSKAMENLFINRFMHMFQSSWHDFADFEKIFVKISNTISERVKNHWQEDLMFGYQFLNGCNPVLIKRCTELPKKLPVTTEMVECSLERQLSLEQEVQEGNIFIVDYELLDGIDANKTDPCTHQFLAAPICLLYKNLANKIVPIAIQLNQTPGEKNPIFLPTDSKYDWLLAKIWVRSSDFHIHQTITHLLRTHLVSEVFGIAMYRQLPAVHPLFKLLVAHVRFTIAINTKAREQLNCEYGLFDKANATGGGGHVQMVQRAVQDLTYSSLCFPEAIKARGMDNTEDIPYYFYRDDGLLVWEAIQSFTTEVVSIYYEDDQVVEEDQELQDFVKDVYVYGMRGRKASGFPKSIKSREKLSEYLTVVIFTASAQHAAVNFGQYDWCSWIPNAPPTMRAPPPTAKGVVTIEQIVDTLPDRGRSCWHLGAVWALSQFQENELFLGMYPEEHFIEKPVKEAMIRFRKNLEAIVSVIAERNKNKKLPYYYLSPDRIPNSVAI
Assay: IC50 for inhibition of rat neutrophil 5-lipoxygenase (5-LO)
parameterMeasured: IC50
Form field: result (number plus unit)

Examples from the recorded data:
Please look at this compound and report its IC50: CCCCCC(O)c1cccc(OCc2cccc(C#N)n2)c1 (stereo unspecified)
30 µM

Tell me its IC50 given CCCCCC(OC(C)=O)c1cccc(OCc2cccc(C(=O)OC)c2)c1 (stereo unspecified) as the entry.
5 µM

Report measured IC50; entry is CCCCCC(O)c1cccc(OCc2ccc3ccccc3c2)c1 (stereo unspecified)
5 µM

# return recorded IC50 for input CCCCCC(O)c1cccc(OCc2ccccc2C(=O)O)c1 (stereo unspecified)
30 µM

Write down IC50 measured for item CCCCCC(O)c1cccc(OCc2cccc(C#N)c2)c1 (stereo unspecified)
17 µM

Now, please, on to the next compound.
Quickly give me recorded IC50 for CCCCCC(=O)c1cccc(OCc2cccc(C(N)=O)c2)c1
0.6 µM

* * *

Target: Polyunsaturated fatty acid 5-lipoxygenase (Rattus norvegicus) (UniProt P12527)
Sequence (whole entry): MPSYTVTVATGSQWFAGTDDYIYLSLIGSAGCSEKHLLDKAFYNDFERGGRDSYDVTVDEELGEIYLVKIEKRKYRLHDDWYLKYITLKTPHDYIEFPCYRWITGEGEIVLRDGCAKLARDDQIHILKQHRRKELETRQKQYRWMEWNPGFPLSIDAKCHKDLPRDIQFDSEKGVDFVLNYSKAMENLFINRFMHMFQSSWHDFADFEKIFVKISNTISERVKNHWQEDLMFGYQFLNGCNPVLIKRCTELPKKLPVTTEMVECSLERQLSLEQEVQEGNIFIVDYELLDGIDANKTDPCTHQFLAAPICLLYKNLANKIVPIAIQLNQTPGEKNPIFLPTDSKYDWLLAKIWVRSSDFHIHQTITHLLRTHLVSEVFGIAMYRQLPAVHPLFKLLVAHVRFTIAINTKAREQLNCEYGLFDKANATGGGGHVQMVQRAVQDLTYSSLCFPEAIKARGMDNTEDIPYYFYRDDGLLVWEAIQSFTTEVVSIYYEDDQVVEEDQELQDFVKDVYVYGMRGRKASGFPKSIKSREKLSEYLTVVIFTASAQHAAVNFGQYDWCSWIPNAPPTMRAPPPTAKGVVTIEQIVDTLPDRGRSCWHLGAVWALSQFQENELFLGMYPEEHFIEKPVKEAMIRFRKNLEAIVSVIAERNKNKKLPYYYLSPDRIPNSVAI
Assay: IC50 for inhibition of rat neutrophil 5-lipoxygenase (5-LO)
Please assign not met whenever IC50 is at or above 6 µM, and met whenever it is below.

Below 6 µM on IC50? Entry CCCCC(OC1CCCCO1)c1cccc(OCc2ccccc2C(=O)OC)c1 (stereo not given)
not met

In the record for CCCCC(C)C(O)c1cccc(OCc2ccccc2)c1 (stereo not given) , is IC50 less than 6 µM?
met

# strict comparison: is reported IC50 < 6 µM? input = CCCCCC(OC)c1cccc(OCc2cccc(C(=O)OC)c2)c1 (stereo not given)
not met

Check if IC50 falls below 6 µM for CCCCCC(O)c1cccc(OCc2ccc(C(=O)OC)cc2)c1 (stereo not given) .
met

Record CCCCCC(O)c1cccc(OCc2cccc(C(N)=O)c2)c1 (stereo not given) : is its IC50 strictly below 6 µM?
met

Now look at this entry.
Dear colleague, could you confirm whether IC50 of CCCCCC(=O)c1cccc(/C=C\c2ccccc2)c1 falls below 6 µM? Thanks.
not met

* * *

Catalogue of compounds with associated IC50
molecular target: Polyunsaturated fatty acid 5-lipoxygenase (Rattus norvegicus) (UniProt P12527); experiment: IC50 for inhibition of rat neutrophil 5-lipoxygenase (5-LO)
Give just the numeric value; µM need not be written.

Below: 2 compounds and their reported IC50.
Item CCCCC(C)(C)C(C)(O)c1cccc(OCc2ccccc2)c1 (stereo not drawn) : provide IC50
2.4

Give IC50 for the following compound: CCCCCC(O)c1cccc(OCc2ccccc2)c1 (stereo not drawn)
2.7

Alright, here's another compound for you.
Give the measured IC50 for CCCCCC(=O)c1cccc(OCc2ccccc2)c1
2

* * *

species: Cavia porcellus; test: Percent inhibition of LTC4-induced contraction in guinea pig parenchymal strip test, at a concentration of 30 uM; format: functional
parameterMeasured: inhibition at 30 µM (%)
Your answer should be a plain number; it is taken to be in %.

# return recorded inhibition at 30 µM for entry CCCCCC(O)c1cccc(OCc2cccc(C(=O)O)n2)c1 (stereo unspecified)
50

# next compound below
Find the measured inhibition at 30 µM of CCCCCC(OC)c1cccc(OCc2cccc(C(=O)OC)c2)c1 (stereo unspecified) and report it.
22

* * *

molecular target: Polyunsaturated fatty acid 5-lipoxygenase (Rattus norvegicus, UniProt P12527); test: Inhibition of rat neutrophil 5- Lipoxygenase (5-LO); settings: read-out: I50
parameterMeasured: log10(IC50) (log10 of the value in µM)
Base-10 log of IC50, unit µM.

Tell me its log10(IC50) given CCCCCC(C)(O)c1cccc(OCc2ccccn2)c1 (centres undefined) as the entry.
-0.37

Give log10(IC50) for CCCCCC(O)c1cccc(OCc2cccc(C(F)(F)F)c2)c1 (centres undefined)
0.60

State its log10(IC50): CCCCC(O)c1cccc(OCc2ccccc2CO)c1 (centres undefined)
0.60

For the compound CCCCCC(=O)c1cccc(OCc2cccc(C#N)c2)c1 , give its measured log10(IC50) value.
0.78

Tell me its log10(IC50) given CCCCCC(C)(O)c1cccc(OCc2ccc3ccccc3n2)c1 (centres undefined) as the entry.
-0.89

Further cases:
Indicate the recorded log10(IC50) value for this compound: CCCCCC(=O)c1cccc(OCc2ccc3ccccc3n2)c1
-0.43

Please list log10(IC50) recorded for the compound CCCCC[C@H](O)/C=C/C=C\C/C=C\C/C=C\CCCC(=O)O
0.16

Give the measured log10(IC50) for CCCCCC(O)c1cccc(OCc2cccc(C(=O)OC)n2)c1 (centres undefined)
0.28

Return log10(IC50) (reported value) for this compound: CCCCC(C)(C)C(O)c1cccc(OCc2cccc(C(=O)OC)c2)c1 (centres undefined)
0.30
